- assayComment: qHTS assay to identify small molecule inhibitors of chordoma cells - UCH-1 (AID 1259355); also: nearly all actives have a fitted effect of over 55% in size
- experimentalContext: UCH-1 chordoma viability, CellTiter-Glo, 48 h, combination, with auranofin plus four topoisomerase inhibitors; series mostly up to 46.1 µM
Records with an inconclusive call do not appear. Active and inactive are the calls of the source. Calls follow the shape of the dose curve; as a rule, active = well fitted cell-killing curve with a large enough effect; inconclusive = small, poorly fitted or top-dose-only effect, or effect the other way; inactive = no such curve, though single readings can be large or run the other way.
Pick one: Yes (active), No (inactive)

compound	group
COc1cc([C@@H]2c3cc4c(cc3[C@H](O)[C@H]3COC(=O)[C@H]23)OCO4)cc(OC)c1OC	Yes

Recorded test call requested for Cn1c(=O)c2c(ncn2CC(O)CO)n(C)c1=O (configuration not stated) No

Quick one: "CCN[C@H]1C[C@H](C)S(=O)(=O)c2sc(S(N)(=O)=O)cc21" No

----------
- assayComment: NFAT Signaling Pathway (AID 444);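 also: carbachol stimulus at about its EC50 of 1 µM final; % is scaled to controls: 0 for no effect and ±100 for the full control effect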
- experimentalContext: Jurkat NFAT-bla M1, carbachol, beta-lactamase ratio, 5 h; at 17.2 µM (top of the series) unless noted
Results filed as inconclusive are left out. Calls of active or inactive are those of the source. Calls follow the shape of the dose curve; as a rule, active = well fitted curve in either direction with a large enough effect (not every such curve was filed as active); inconclusive = small, poorly fitted or top-dose-only effect, or another doubt; inactive = flat fitted curve, though single readings scatter.
The reply should name one outcome from True = active, False = inactive

# count of solved cases: 2
COc1ncnc(NS(=O)(=O)c2ccc(N)cc2)c1OC False
O=S(=O)(c1cccc2cnccc12)N1CCCNCC1 False

Please share the test call associated with "CC1=CC(=O)c2ccccc2C1=O" . True

Another compound: "CC1=NN(c2ccccc2)C(=O)C1" False

# repeat for "O=C(O)c1cn(C2CC2)c2cc(N3CCNCC3)c(F)cc2c1=O" False

Next compound up: "CCCOc1ccc(C(=O)OCCN(CC)CC)cc1N" False

And the next one, "COc1cnc(NS(=O)(=O)c2ccc(N)cc2)nc1" ? False

----------
- Tested on: PAD
- assayComment: qHTS profiling for inhibitors of Plasmodium falciparum proliferation (AID 504749); also: nearly all actives have a fitted effect of over 60% in size
- experimentalContext: P. falciparum in erythrocytes, SYBR Green DNA, 72 h; series mostly up to 28.7 µM
- Protocol: NIH National Institute of Allergy and Infectious Diseases [NIAID] NIH Chemical Genomics Center [NCGC] […] Because mature erythrocytes lack DNA, only Plasmodium-derived DNA is detected. NCGC Assay Protocol Summary: The SYBR Green viability assay was adapted from a method described previously (Plouffe et al., 2008). […] The following morning, fluorescence intensity at 485(14) nm excitation and 535(25) nm emission wavelengths was measured on an EnVision (Perkin Elmer) plate reader. […]
Records with an inconclusive call do not appear. Active and inactive are the calls of the source. Calls come from the whole dose curve; as a rule, active = well fitted inhibition curve with a large enough effect; inconclusive = small, poorly fitted or top-dose-only effect; inactive = flat fitted curve, though single readings scatter.
readout: outcome

Cc1ncc([N+](=O)[O-])n1CCO inactive
COc1cc(NS(=O)(=O)c2ccc(N)cc2)nc(OC)n1 inactive
CCCN[C@H]1CCc2nc(N)sc2C1 inactive

----------
- Test system: SKOV3
- assayComment: Primary qHTS to identify gynecologic anti-cancer compounds using libraries of approved drugs and bioactive compounds (AID 1345084); also: nearly all actives have a fitted effect of over 55% in size
- experimentalContext: Gynecologic cancer cell panel viability, ATPlite luminescence, 48 h; series mostly up to 57.5 µM
Inconclusive results are not listed. The source made the active and inactive calls. Calls come from the whole dose curve; as a rule, active = well fitted cell-killing curve with a large enough effect; inconclusive = small, poorly fitted or top-dose-only effect, or effect the other way; inactive = flat fitted curve, though single readings scatter.
Classes to choose from: active, inactive

NC(=O)N1c2ccccc2CC(=O)c2ccccc21 inactive
Cc1nnc(NS(=O)(=O)c2ccc(N)cc2)s1 inactive
CC1(C)[C@H](C(=O)O)N2C(=O)C[C@H]2S1(=O)=O inactive

Read the next record carefully.
Called result for "CC(C)(C)NC(=O)[C@H]1CC[C@H]2[C@@H]3CC[C@H]4NC(=O)C=C[C@]4(C)[C@H]3CC[C@]12C" active

----------
- Tested on: CP215
- assayComment: qHTS profiling for inhibitors of Plasmodium falciparum proliferation (AID 504749); also: nearly all actives have a fitted effect of over 60% in size
- experimentalContext: P. falciparum in erythrocytes, SYBR Green DNA, 72 h; series mostly up to 28.7 µM
Results filed as inconclusive are left out. Activity calls are given as the source filed them. The call rests on the fitted dose curve; in most records, active means well fitted inhibition curve with a large enough effect; inconclusive means small, poorly fitted or top-dose-only effect; inactive means flat fitted curve, though single readings scatter.
API: response.call in yes (1) (active), no (0) (inactive)

Observe how each entry below is paired with its result.
compound	group
CCOc1cc(N)c(Cl)cc1C(=O)NCC1CN(Cc2ccc(F)cc2)CCO1 (stereo not drawn)	yes (1)
COc1c(N2CCNC(C)C2)c(F)cc2c(=O)c(C(=O)O)cn(C3CC3)c12 (stereo not drawn)	no (0)

Then this compound:
Record lookup: outcome of this test for "CCCc1cc(C(N)=S)ccn1" ? no (0)

----------
- assayComment: Quantitative High-Throughput drug screen in 47 multiple myeloma cell lines against the NCATS MIPE library collection: MM1S_ATCC cell viability assay (AID 1918980); also: nearly all actives have a fitted effect of over 45% in size
- experimentalContext: MM1S myeloma viability, CellTiter-Glo ATP luminescence, 48 h; series mostly up to 45.8 µM
Records with an inconclusive call do not appear. Active and inactive are the calls of the source. The call rests on the fitted dose curve; in most records, active means well fitted cell-killing curve with a large enough effect; inconclusive means small, poorly fitted or top-dose-only effect, or effect the other way; inactive means no such curve, though single readings can be large or run the other way.
Form entry, call: pick from active, inactive

Examples with answers:
molecule	group
Cc1cccc(Nc2ccncc2S(=O)(=O)NC(=O)NC(C)C)c1	inactive
CCCCc1oc2ccc(NS(C)(=O)=O)cc2c1C(=O)c1ccc(OCCCN(CCCC)CCCC)cc1	active
CNC1CCCN(c2c(F)cc3c(=O)c(C(=O)O)cn(C4CC4)c3c2OC)C1 (centres undefined)	active
CC(N)C12CC3CC(CC(C3)C1)C2 (centres undefined)	inactive
COc1cc2ncnc(Nc3cccc(Cl)c3)c2cc1OC	active

So what was the verdict on "CC(=O)Oc1ccccc1C(=O)Nc1ncc([N+](=O)[O-])s1" in this test? active

Same thing, different molecule: "CC1(C)[C@H](C(=O)O)N2C(=O)C[C@H]2S1(=O)=O" active

And the next one, "CCCN[C@H]1CCc2nc(N)sc2C1" ? active

Repeat for the following molecule: "CC[C@H](NC(C)C)[C@H](O)c1ccc(O)c2[nH]c(=O)ccc12" active

# repeat for "CC1=NN(c2ccccc2)C(=O)C1" inactive

Check CCCCS(=N)(=O)CCC(N)C(=O)O (centres undefined) too. inactive

Param item: "Nc1nc(F)nc2c1ncn2[C@@H]1O[C@H](CO)[C@@H](O)[C@@H]1O" active

----------
- assayComment: High-throughput drug toxicity screening in the BPDCN cell line Cal-1 (AID 1224825);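 also: cells exposed to compounds for 48 h; 100% = DMSO and 0% = bortezomib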
- experimentalContext: Cal-1 BPDCN cell viability, qHTS; at 45.8 µM (top of the series) unless noted
Here the recorded viability (% of control) is given for each entry.
Entry rule: numbers only, all in %.

Before answering, review these 5 worked examples.
molecule	readout	endpointValue
NC(=O)c1ccc2[nH]ccc2c1	viability (% of control)	90.6
CCCc1cc(C(N)=S)ccn1	viability (% of control)	93.7
Cc1ncc([N+](=O)[O-])n1CCO	viability (% of control)	76.6
CCN[C@H]1C[C@H](C)S(=O)(=O)c2sc(S(N)(=O)=O)cc21	viability (% of control)	102
COC(=O)Nc1nc2ccc(Sc3ccccc3)cc2[nH]1	viability (% of control)	18.7

For the molecule shown here, "O=C(O)c1cn(C2CC2)c2cc(N3CCNCC3)c(F)cc2c1=O" , give the reported viability (% of control). 103

----------
- System: CP329
- assayComment: qHTS profiling for inhibitors of Plasmodium falciparum proliferation (AID 504749); also: nearly all actives have a fitted effect of over 60% in size
- experimentalContext: P. falciparum in erythrocytes, SYBR Green DNA, 72 h; series mostly up to 28.7 µM
Records with an inconclusive call do not appear. Calls of active or inactive are those of the source. The call rests on the fitted dose curve; in most records, active means well fitted inhibition curve with a large enough effect; inconclusive means small, poorly fitted or top-dose-only effect; inactive means flat fitted curve, though single readings scatter.
Answer with one of the outcomes given here: y for active, n for inactive

CNCC[C@H](Oc1cccc2ccccc12)c1cccs1 n
COc1cccc(N(C)C(=S)Oc2ccc3c(c2)CCCC3)n1 n
COc1cc(NCc2ccc3nc(N)nc(N)c3c2C)cc(OC)c1OC y
N=C(N)c1ccc(OCCCCCOc2ccc(C(=N)N)cc2)cc1 y

Consider now this further compound.
Entry "CC(C)(Sc1cc(C(C)(C)C)c(O)c(C(C)(C)C)c1)Sc1cc(C(C)(C)C)c(O)c(C(C)(C)C)c1" : call = ? n

----------
- targetSystem: Ubiquitin carboxyl-terminal hydrolase 1 (Homo sapiens) (UniProt O94782)
- Sequence (O94782 whole entry, looked up): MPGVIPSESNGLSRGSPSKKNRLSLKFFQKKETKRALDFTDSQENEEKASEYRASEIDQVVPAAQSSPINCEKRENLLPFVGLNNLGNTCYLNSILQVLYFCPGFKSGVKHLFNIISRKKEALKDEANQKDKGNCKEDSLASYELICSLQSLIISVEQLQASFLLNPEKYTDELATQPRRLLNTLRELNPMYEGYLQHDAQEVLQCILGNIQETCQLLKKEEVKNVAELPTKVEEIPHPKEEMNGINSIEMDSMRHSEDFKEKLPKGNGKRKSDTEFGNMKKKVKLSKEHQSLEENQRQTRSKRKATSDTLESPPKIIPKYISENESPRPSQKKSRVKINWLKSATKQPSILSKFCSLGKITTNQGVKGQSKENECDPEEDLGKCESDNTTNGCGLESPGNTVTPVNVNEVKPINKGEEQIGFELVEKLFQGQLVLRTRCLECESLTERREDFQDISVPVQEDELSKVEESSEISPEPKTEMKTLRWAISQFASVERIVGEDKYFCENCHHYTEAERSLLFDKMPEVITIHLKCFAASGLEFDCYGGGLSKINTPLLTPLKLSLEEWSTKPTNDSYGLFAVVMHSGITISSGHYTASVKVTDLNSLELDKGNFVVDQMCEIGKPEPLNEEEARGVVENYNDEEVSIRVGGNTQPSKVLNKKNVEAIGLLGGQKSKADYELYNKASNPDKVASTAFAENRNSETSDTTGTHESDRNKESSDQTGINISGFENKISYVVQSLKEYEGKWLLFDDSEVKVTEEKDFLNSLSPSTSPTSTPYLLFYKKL
- assayComment: Inhibitors of USP1/UAF1: Pilot qHTS (AID 504865); also: nearly all actives have a fitted effect of over 35% in size
- experimentalContext: purified USP1/UAF1, Ub-rhodamine cleavage fluorescence; series mostly up to 114 µM
Records with an inconclusive call do not appear. Activity calls are given as the source filed them. Calls come from the whole dose curve; as a rule, active = well fitted inhibition curve with a large enough effect; inconclusive = small, poorly fitted or top-dose-only effect; inactive = flat fitted curve, though single readings scatter.
Outcomes you can answer with include only these: active, inactive

Example entries begin here.
molecule	group
NC(=O)c1cccnc1	inactive
CN1CCN(c2c(F)cc3c(=O)c(C(=O)O)cn4c3c2OCN4C)CC1	inactive
Cc1nnc(NS(=O)(=O)c2ccc(N)cc2)s1	inactive
COc1nc(N)nc2c1ncn2[C@@H]1O[C@H](CO)[C@@H](O)[C@@H]1O	active
O=S(=O)(c1cccc2cnccc12)N1CCCNCC1	inactive

Which outcome was entered for the molecule "O=C(N[C@H](CO)[C@H](O)c1ccc([N+](=O)[O-])cc1)C(Cl)Cl" in this test? inactive

Also, CC(N)C12CC3CC(CC(C3)C1)C2 (centres undefined) please. inactive

Please give the result for "Oc1c(Cl)cc(Cl)c2cccnc12" too. inactive

Please give the result for "Cc1ccnc2c1NC(=O)c1cccnc1N2C1CC1" too. inactive

// repeat for "CC(C)(C#N)c1cc(Cn2cncn2)cc(C(C)(C)C#N)c1" and report inactive

Repeat with CCN(CC)CC#CCOC(=O)C(O)(c1ccccc1)C1CCCCC1 (centres undefined) inactive

Cited source for all entries: PubChem BioAssay (NCATS)
